# System: Schistosoma mansoni
# Procedure Summary: Inhibition of recombinant Schistosoma mansoni NACE using 1, N6-etheno NAD+ as substrate at 100 uM by fluorometric analysis relative to control
This listing pairs molecules with measured inhibition.

Recorded results for 3 molecules are shown here.
Molecule | inhibition
Cc1occc1-c1nnc(-c2cc(Cl)ccc2O)o1 | 0%
COc1ccc(-c2nnc(-c3ccoc3C)o2)c(O)c1 | 0%
Cc1occc1-c1nnc(-c2ccccc2O)o1 | 0%

// query Return inhibition measured with Schistosoma mansoni given this molecule: COc1ccccc1CCNC(=O)c1ccoc1C
// result 0%

// query Return inhibition measured with Schistosoma mansoni given this molecule: O=C1c2c(O)cc(O)cc2OC(c2ccc(O)c(O)c2)C1O (racemic)
// result > 40%
